Listed below: inhibition at 15 µM values for each entry.
Biological target: HLA-A0203 (Homo sapiens, UniProt P04439, A173T/D140Y/D185E/D98H/E277Q/G131W/G231S/I119V/I121R/I166T/I218V/L180W/L300P/L318F/N151K/N90K/P208A/P217A/Q86G/Q94H/R138H/R169H/T345S)
Construct: expressed in transfected cells; host or cells: HMy2.CIR
Experiment: cell-based
Type: binding
Conditions: HLA-A0203 HMy2.CIR cells; competitor peptide 15μM; 24 hours; flow cytometry
Residues, ends and D or L forms follow the SMILES beside them.
Test readout: inhibition at 15 µM (%)

Compound: CSCC[C@H](NC(=O)CNC(=O)[C@H](CCC(N)=O)NC(=O)[C@H](Cc1ccc(O)cc1)NC(=O)[C@H](CC(=O)O)NC(=O)[C@H](CC(C)C)NC(=O)[C@@H](N)CC(C)C)C(=O)N[C@@H](CC(C)C)C(=O)N1CCC[C@H]1C(=O)N[C@H](C(=O)O)C(C)C [Epitope P95]
Value measured: 96
//
Compound: CC[C@H](C)[C@H](NC(=O)[C@H](Cc1c[nH]c2ccccc12)NC(=O)[C@@H](NC(=O)CNC(=O)[C@H](Cc1ccccc1)NC(=O)[C@H](CO)NC(=O)[C@@H](NC(=O)[C@H](CC(C)C)NC(=O)[C@@H](N)Cc1ccc(O)cc1)C(C)C)C(C)C)C(=O)O [Epitope P11]
Value measured: 97.4
//
Compound: CC[C@H](C)[C@H](NC(=O)[C@H](CC(C)C)NC(=O)[C@@H](N)CCCCN)C(=O)NCC(=O)N[C@H](C(=O)N[C@@H](Cc1c[nH]cn1)C(=O)N[C@@H](CC(N)=O)C(=O)N[C@@H](CO)C(=O)N[C@H](C(=O)O)C(C)C)[C@@H](C)O [Epitope P33] (H-KLIGTHNSV-OH; N-terminus and C-terminus assumed)
Value measured: 41.9
//
Compound: CC[C@H](C)[C@H](NC(=O)[C@H](C)NC(=O)[C@@H](N)CO)C(=O)N[C@@H](CO)C(=O)N[C@@H](CO)C(=O)N[C@H](C(=O)N[C@@H](CO)C(=O)N[C@@H](CO)C(=O)N[C@@H](CCCCN)C(=O)O)[C@@H](C)CC [Epitope P39] (H-SAISSISSK-OH; N-terminus and C-terminus assumed)
Value measured: 3.81

====

Molecular target: HLA-A3303 (Homo sapiens, UniProt P04439, A270S/D185E/E176V/E277Q/E87N/F33T/G231S/H175R/I121M/I218V/I322F/K168Q/L300P/L318F/M331R/P217A/Q86R/Q94H/R138Q/T323A/T345S/T97I/V358M)
Construct: expressed in transfected cells; host or cells: HMy2.CIR
Experiment: cell-based
Format: binding
Conditions: HLA-A3303 HMy2.CIR cells; competitor peptide 5μM; 24 hours; flow cytometry; read-out: 5μM Inhibition (%)
Residues, ends and D or L forms follow the SMILES beside them.

Compound: CSCC[C@H](NC(=O)[C@H](Cc1c[nH]c2ccccc12)NC(=O)[C@H](CCCNC(=N)N)NC(=O)[C@H](Cc1ccc(O)cc1)NC(=O)CNC(=O)[C@@H]1CCCN1C(=O)[C@@H](N)CS)C(=O)N[C@@H](CS)C(=O)N[C@@H](CC(C)C)C(=O)N[C@@H](CCCNC(=N)N)C(=O)O [Epitope P77] (H-CPGYRWMCLR-OH; N-terminus and C-terminus assumed)
Unit spec: %
inhibition at 5 µM: 6.5

Compound: CC[C@H](C)[C@H](NC(=O)[C@H](Cc1c[nH]c2ccccc12)NC(=O)[C@@H](NC(=O)CNC(=O)[C@H](Cc1ccccc1)NC(=O)[C@H](CO)NC(=O)[C@@H](NC(=O)[C@H](CC(C)C)NC(=O)[C@@H](N)Cc1ccc(O)cc1)C(C)C)C(C)C)C(=O)O [Epitope P11]
Unit spec: %
inhibition at 5 µM: 10.2

Compound: CC(C)C[C@H](NC(=O)[C@@H](N)Cc1ccccc1)C(=O)N1CCC[C@H]1C(=O)N[C@@H](CO)C(=O)N[C@@H](CC(=O)O)C(=O)N[C@@H](Cc1ccccc1)C(=O)N[C@@H](Cc1ccccc1)C(=O)N1CCC[C@H]1C(=O)N[C@@H](CO)C(=O)O [Epitope P67] (H-FLPSDFFPS-OH; N-terminus and C-terminus assumed)
Unit spec: %
inhibition at 5 µM: 0

====

Target: HLA-A0301 (Homo sapiens, UniProt P04439)
Construct: expressed in transfected cells; host or cells: HMy2.CIR
Assay: Peptide competitive binding assay, transfected HMy2.CIR cells, reference ATFQFK(FITC)VER
Conditions: HLA-A0301 HMy2.CIR cells; competitor peptide 15μM; 24 hours; flow cytometry; read-out: 15μM Inhibition (%)
Residues, ends and D or L forms follow the SMILES beside them.
Use 1 when the recorded inhibition at 15 µM is no lower than 70%; use 0 when it is lower.

Compound: CSCC[C@H](NC(=O)[C@@H](N)CO)C(=O)N[C@@H](Cc1ccc(O)cc1)C(=O)N1CCC[C@H]1C(=O)N[C@@H](CO)C(=O)N[C@@H](CS)C(=O)N[C@@H](CS)C(=O)N[C@@H](CS)C(=O)N[C@H](C(=O)N[C@@H](CCCCN)C(=O)O)[C@@H](C)O [Epitope P13] (H-SMYPSCCCTK-OH; N-terminus and C-terminus assumed)
Experimental target: HLA-A0301 (Homo sapiens, UniProt P04439)
Label class: 1

Compound: CC(C)C[C@H](NC(=O)[C@@H](NC(=O)[C@H](CCC(N)=O)NC(=O)[C@H](Cc1c[nH]cn1)NC(=O)[C@H](C)NC(=O)[C@H](CC(N)=O)NC(=O)[C@@H](NC(=O)[C@@H](N)[C@@H](C)O)C(C)C)C(C)C)C(=O)N1CCC[C@H]1C(=O)N[C@@H](CCCCN)C(=O)O [Epitope P48] (H-TVNAHQVLPK-OH; N-terminus and C-terminus assumed)
Experimental target: HLA-A0301 (Homo sapiens, UniProt P04439)
Label class: 1

Compound: CSCC[C@H](NC(=O)[C@@H](N)CCSC)C(=O)N[C@@H](Cc1c[nH]c2ccccc12)C(=O)N[C@@H](Cc1ccccc1)C(=O)N[C@@H](Cc1c[nH]c2ccccc12)C(=O)NCC(=O)N1CCC[C@H]1C(=O)N[C@@H](CO)C(=O)N[C@@H](CC(C)C)C(=O)O [Epitope P71] (H-MMWFWGPSL-OH; N-terminus and C-terminus assumed)
Experimental target: HLA-A0301 (Homo sapiens, UniProt P04439)
Label class: 0

Compound: CSCC[C@H](NC(=O)[C@@H](N)CCSC)C(=O)N[C@@H](Cc1c[nH]c2ccccc12)C(=O)N[C@@H](Cc1ccc(O)cc1)C(=O)N[C@@H](Cc1c[nH]c2ccccc12)C(=O)NCC(=O)N1CCC[C@H]1C(=O)N[C@@H](CO)C(=O)N[C@@H](CC(C)C)C(=O)N[C@@H](Cc1ccc(O)cc1)C(=O)O [Epitope P108]
Experimental target: HLA-A0301 (Homo sapiens, UniProt P04439)
Label class: 0

Compound: CC(C)C[C@H](NC(=O)[C@H](CC(N)=O)NC(=O)CNC(=O)[C@H](Cc1c[nH]cn1)NC(=O)[C@H](C)NC(=O)[C@H](CC(N)=O)NC(=O)[C@@H](NC(=O)[C@@H](N)[C@@H](C)O)C(C)C)C(=O)N1CCC[C@H]1C(=O)N[C@@H](CCCCN)C(=O)O [Epitope P47] (H-TVNAHGNLPK-OH; N-terminus and C-terminus assumed)
Experimental target: HLA-A0301 (Homo sapiens, UniProt P04439)
Label class: 1

====

Molecular target: HLA-A1102 (Homo sapiens, UniProt P04439, A114D/D185E/E176A/E43K/F33Y/L180Q/S129P/T187R)
Construct: expressed in transfected cells; host or cells: HMy2.CIR
Assay: Peptide competitive binding assay, transfected HMy2.CIR cells, reference ATFQFK(FITC)VER
Settings: HLA-A1102 HMy2.CIR cells; competitor peptide 15μM; 24 hours; flow cytometry; read-out: 15μM Inhibition (%)
Residues, ends and D or L forms follow the SMILES beside them.

Compound: CC[C@H](C)[C@H](NC(=O)[C@H](Cc1c[nH]c2ccccc12)NC(=O)[C@@H](NC(=O)CNC(=O)[C@H](Cc1ccccc1)NC(=O)[C@H](CO)NC(=O)[C@@H](NC(=O)[C@@H](N)CC(C)C)C(C)C)C(C)C)C(=O)N[C@@H](CCCNC(=N)N)C(=O)O [Epitope P4]
inhibition at 15 µM: 0%
//
Compound: CSCC[C@H](NC(=O)[C@@H](N)CO)C(=O)N[C@@H](Cc1ccc(O)cc1)C(=O)N1CCC[C@H]1C(=O)N[C@@H](CO)C(=O)N[C@@H](CS)C(=O)N[C@@H](CS)C(=O)N[C@@H](CS)C(=O)N[C@H](C(=O)N[C@@H](CCCCN)C(=O)O)[C@@H](C)O [Epitope P13] (H-SMYPSCCCTK-OH; N-terminus and C-terminus assumed)
inhibition at 15 µM: 73.1%
//
Compound: CC(C)C[C@H](NC(=O)[C@@H](NC(=O)[C@H](CCC(N)=O)NC(=O)[C@H](Cc1c[nH]cn1)NC(=O)[C@H](C)NC(=O)[C@H](CC(N)=O)NC(=O)[C@@H](NC(=O)[C@@H](N)[C@@H](C)O)C(C)C)C(C)C)C(=O)N1CCC[C@H]1C(=O)N[C@@H](CCCCN)C(=O)O [Epitope P48] (H-TVNAHQVLPK-OH; N-terminus and C-terminus assumed)
inhibition at 15 µM: 42.7%

Source: paper PMC9021956
